system_under_test: PDE1B (Homo sapiens (Human), UniProt Q01064)
Sequence (Q01064 whole entry): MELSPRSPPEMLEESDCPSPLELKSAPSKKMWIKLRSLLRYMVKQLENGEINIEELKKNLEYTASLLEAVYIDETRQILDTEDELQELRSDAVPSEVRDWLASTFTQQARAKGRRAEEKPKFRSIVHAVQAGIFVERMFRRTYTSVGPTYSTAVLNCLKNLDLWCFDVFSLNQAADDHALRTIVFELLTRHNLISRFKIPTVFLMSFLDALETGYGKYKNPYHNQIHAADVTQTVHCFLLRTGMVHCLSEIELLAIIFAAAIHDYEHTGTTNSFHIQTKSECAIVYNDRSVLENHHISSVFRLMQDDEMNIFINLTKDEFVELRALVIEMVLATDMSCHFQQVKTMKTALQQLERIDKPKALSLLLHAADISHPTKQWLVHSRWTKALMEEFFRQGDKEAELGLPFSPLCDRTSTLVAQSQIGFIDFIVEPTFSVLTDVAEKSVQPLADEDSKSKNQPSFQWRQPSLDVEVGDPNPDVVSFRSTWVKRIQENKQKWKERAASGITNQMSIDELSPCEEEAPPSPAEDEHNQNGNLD
pIC50: −log10 of the molar value.
measured_quantity: pIC50

Sample answers from the record:
CCOc1ncccc1-c1ccn2c(C3CCC3)nc(C)c2n1 :: 6.53
CCOc1ncccc1-c1cc(N[C@@H]2CCC[C@H]2OC)c2c(cnn2C)n1 :: 6.27
CCOc1ncccc1-c1cc(N[C@@H]2COC[C@H]2OC)c2c(cnn2C(C)C)n1 (relative stereo) :: 7.09
CCOc1ncccc1-c1ccn2c(C(C)C)nc(C)c2n1 :: 7.47
CCOc1ncccc1-c1ccn2c(C3CCCC3)nc(C)c2n1 :: 6.23
CCOc1ncccc1-c1ccn2c(C3CCOC3)nc(C)c2n1 (racemic) :: 6.84

a: CCOc1ncncc1-c1cc(NC2CCOC2)c2c(cnn2C(C)C)n1 (stereo in doubt)
b: CCOc1ncccc1-c1cc(N[C@@H]2CCCOC2)c2c(cnn2C(C)C)n1
Ask | // max by pIC50 over [ a , b ] To answer, give the label that identifies your chosen option.
Reply | b
(b: 6.37, a: 6.04)

---

system_under_test: PDE1C (Homo sapiens (Human), UniProt Q14123)
Sequence (Q14123 whole entry): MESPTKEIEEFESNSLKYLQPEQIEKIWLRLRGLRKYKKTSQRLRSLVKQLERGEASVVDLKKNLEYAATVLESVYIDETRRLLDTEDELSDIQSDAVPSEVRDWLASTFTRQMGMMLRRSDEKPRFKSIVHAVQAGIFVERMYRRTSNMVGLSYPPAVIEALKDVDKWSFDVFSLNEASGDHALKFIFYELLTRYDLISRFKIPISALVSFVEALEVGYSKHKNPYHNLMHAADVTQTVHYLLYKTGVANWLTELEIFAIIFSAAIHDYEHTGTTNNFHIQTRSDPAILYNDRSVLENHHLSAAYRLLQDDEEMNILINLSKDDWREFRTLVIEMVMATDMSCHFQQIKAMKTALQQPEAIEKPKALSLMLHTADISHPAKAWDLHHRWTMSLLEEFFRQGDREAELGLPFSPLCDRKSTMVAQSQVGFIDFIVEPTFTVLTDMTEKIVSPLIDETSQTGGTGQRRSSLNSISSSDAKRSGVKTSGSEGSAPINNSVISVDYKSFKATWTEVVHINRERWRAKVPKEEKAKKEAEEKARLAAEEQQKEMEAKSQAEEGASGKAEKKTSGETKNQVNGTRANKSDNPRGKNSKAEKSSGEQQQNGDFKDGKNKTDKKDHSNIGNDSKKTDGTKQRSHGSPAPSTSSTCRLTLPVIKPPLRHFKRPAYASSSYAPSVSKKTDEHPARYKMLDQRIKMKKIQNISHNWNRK
test_protocol: PDE1 inhibition assay, PDE1C
Assay type: biochemical
reported_conditions: 15 nM tritium labelled cAMP, 1 hr at room temperature, SPA beads; read-out: PDE1 C, IC50
pIC50: −log10 of the molar value.
measured_quantity: pIC50

Sample answers from the record:
CCOc1ncccc1-c1ccn2c(CC(F)(F)F)nc(C)c2n1 :: 6.14
CCOc1ncccc1-c1ccn2c(C(C)CC)nc(C)c2n1 (racemic) :: 6.95

A: Cc1cc2c(nc1-c1ccccc1)c(C)nn2C(C)C
B: COc1cccc(Cc2cc(N[C@@H]3CCOC3)c3c(cnn3C(C)C)n2)c1
C: COc1ccc(Cc2cc(N[C@@H]3CCOC3)c3c(cnn3C(C)C)n2)cc1
Ask | Returns the items ordered by pIC50, from maximum to minimum. Use the labels to give the requested order.
Reply | A, C, B
(A: 6.70, C: 6.30, B: 5.78)

I: CCOc1ncccc1-c1cc(NC[C@@H]2CCCO2)c2c(cnn2C(C)C)n1
II: CCOc1ncccc1-c1ccc2c(cnn2C(C)C)n1
III: CCOc1ncccc1-c1cc(N)c2c(n1)c(C)nn2C(C)C
Ask | Returns the items ordered by pIC50, from maximum to minimum. Use the labels to give the requested order.
Reply | III, I, II

---

system_under_test: UniProt Q14123
measured_quantity: IC50 (nM)

Sample answers from the record:
COc1cncc(-c2cc(N[C@@H]3CCOC3)c3c(cnn3C(C)C)n2)c1 :: 1550
CCOc1ncccc1-c1ccn2c(C3CCC3)nc(C)c2n1 :: 2090
CCOc1ncccc1-c1ccn2c(C3COC3)nc(C)c2n1 :: 632
COc1ncccc1-c1nc2c(C)nn(C(C)C)c2cc1C :: 236
CCOc1ncccc1-c1ccn2c(C3CCOC3)nc(C)c2n1 (racemic) :: 1630
COc1ccccc1-c1nc2c(C)nn(C(C)C)c2cc1C :: 568

a: CCOc1ncccc1-c1cc(NC)c2c(cnn2C(C)C)n1
b: CC(C)n1ncc2nc(-c3cccc(OC(F)F)c3)cc(N[C@@H]3CCOC3)c21
Ask | // max by IC50 over [ a , b ] To answer, give the label that identifies your chosen option.
Reply | b
(b: 1730 nM, a: 1060 nM)

Entry source: patent US11535611B2
